Tested on: mfPRLR.mmh (monomeric macaca fascicularis PRLR)
Sequence (as listed by the source): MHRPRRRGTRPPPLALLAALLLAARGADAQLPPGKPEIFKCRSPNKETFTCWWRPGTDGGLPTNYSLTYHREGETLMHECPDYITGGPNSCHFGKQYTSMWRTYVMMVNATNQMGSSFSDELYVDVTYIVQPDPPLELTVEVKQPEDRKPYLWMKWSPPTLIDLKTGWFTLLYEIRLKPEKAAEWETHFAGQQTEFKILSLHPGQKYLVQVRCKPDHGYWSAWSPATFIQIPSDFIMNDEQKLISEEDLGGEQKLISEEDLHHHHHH
Assay: Surface plasmon resonance (Biacore T200), mAb-capture format
Assay type: binding
Settings: 25° C., antibody-capture format, analyte mfPRLR.mmh
measurement.type: T½ (min)
Respond numerically; units are min and should not be typed.

molecule | T½ [min]
H1H6966N: human IgG1 Fc form of H2M6966N; anti-PRLR; HCVR/LCVR SEQ ID NOs 338/346 (antibody, V domains shown, human IgG1 Fc) VH: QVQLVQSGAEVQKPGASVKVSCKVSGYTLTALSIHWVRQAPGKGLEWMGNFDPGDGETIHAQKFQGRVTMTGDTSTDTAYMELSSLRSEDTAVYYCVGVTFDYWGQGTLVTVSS VL: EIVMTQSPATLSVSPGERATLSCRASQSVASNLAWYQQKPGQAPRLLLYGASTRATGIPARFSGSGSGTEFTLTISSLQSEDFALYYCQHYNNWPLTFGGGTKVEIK | 35.6

T½ reported for this molecule H1H6967N: human IgG1 Fc form of H2M6967N; anti-PRLR; HCVR/LCVR SEQ ID NOs 354/362 (antibody, V domains shown, human IgG1 Fc) VH: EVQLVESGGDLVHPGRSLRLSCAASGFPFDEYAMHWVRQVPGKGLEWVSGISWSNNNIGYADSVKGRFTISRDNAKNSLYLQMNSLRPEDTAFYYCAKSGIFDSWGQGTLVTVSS VL: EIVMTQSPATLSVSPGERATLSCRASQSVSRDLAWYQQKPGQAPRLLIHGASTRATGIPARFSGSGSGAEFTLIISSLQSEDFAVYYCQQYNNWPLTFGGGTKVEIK : 19.7
